Form field: pIC50 (one value per entry).
- protocol-description: Antiproliferative activity against human VAL cells assessed as inhibition of cell growth incubated for 4 hrs by CCK-8 assay
- Assay type: functional, cell-based
Units for pIC50: none; it is -log10 of a concentration expressed in mol/L.

NC(=O)/C(=C/n1cnc(-c2cc(C(F)(F)F)cc(C(F)(F)F)c2)n1)c1cncnc1 [ELTANEXOR]; 6.54

Here is another compound to look at.
Data point: CS(=O)(=O)Nc1ccc(/C(=C\n2cnc(-c3cc(C(F)(F)F)cc(C(F)(F)F)c3)n2)C(N)=O)cc1 ; pIC50 = 6.72

====

Form field: IC50 (one value per entry).
- Tested on: MM1.S
- protocol-description: Antiproliferative activity against human MM1.S cells assessed as inhibition of cell growth incubated for 4 hrs by CCK-8 assay
- Format: functional, cell-based
Just the number in nM, nothing appended.

Below: 2 compounds and their reported IC50.
NC(=O)/C(=C/n1cnc(-c2cc(C(F)(F)F)cc(C(F)(F)F)c2)n1)c1cccc(F)c1F; 5200
NC(=O)/C(=C/n1cnc(-c2cc(C(F)(F)F)cc(C(F)(F)F)c2)n1)c1cncnc1 [ELTANEXOR]; 64

Summary line: COc1c(F)cc(/C(=C\n2cnc(-c3cc(C(F)(F)F)cc(C(F)(F)F)c3)n2)C(N)=O)cc1F , MM1.S, reported IC50 = 3470

Summary line: NC(=O)/C(=C/n1cnc(-c2cc(C(F)(F)F)cc(C(F)(F)F)c2)n1)c1ccc(NS(=O)(=O)C2CCCCC2)cc1 , MM1.S, reported IC50 = 1270

====

- Tested on: MM1.S
- protocol-description: Antiproliferative activity against human MM1.S cells assessed as inhibition of cell growth incubated for 4 hrs by CCK-8 assay
- Format: functional, cell-based
assay-readout: IC50 (nM)
Just the number in nM, nothing appended.

N#Cc1cncc(/C(=C\n2cnc(-c3cc(C(F)(F)F)cc(C(F)(F)F)c3)n2)C(N)=O)c1; 118
NC(=O)/C(=C/n1cnc(-c2cc(C(F)(F)F)cc(C(F)(F)F)c2)n1)c1cc(F)c(F)c(F)c1; 2430
Cc1ccc(S(=O)(=O)Nc2ccc(/C(=C\n3cnc(-c4cc(C(F)(F)F)cc(C(F)(F)F)c4)n3)C(N)=O)cc2)cc1; 2750
CS(=O)(=O)Nc1cccc(/C(=C\n2cnc(-c3cc(C(F)(F)F)cc(C(F)(F)F)c3)n2)C(N)=O)c1; 271
NC(=O)/C(=C/n1cc(Cl)c(-c2cc(C(F)(F)F)cc(C(F)(F)F)c2)n1)c1cncnc1; 2240
CS(=O)(=O)Nc1ccc(/C(=C\n2cnc(-c3cc(C(F)(F)F)cc(C(F)(F)F)c3)n2)C(N)=O)cc1; 24

Data point: NC(=O)/C(=C/n1cnc(-c2cc(C(F)(F)F)cc(C(F)(F)F)c2)n1)c1cccnc1 ; IC50 = 194

Data point: Cc1cn(/C=C(/C(N)=O)c2cncnc2)nc1-c1cc(C(F)(F)F)cc(C(F)(F)F)c1 ; IC50 = 2070

Data point: CN(C)C(=O)/C(=C/n1cnc(-c2cc(C(F)(F)F)cc(C(F)(F)F)c2)n1)c1ccc(NS(C)(=O)=O)cc1 ; IC50 = 8960

Data point: COc1ccc(/C(=C\n2cnc(-c3cc(C(F)(F)F)cc(C(F)(F)F)c3)n2)C(N)=O)c(F)c1F ; IC50 = 1200

Data point: NC(=O)/C(=C/n1cnc(-c2cc(C(F)(F)F)cc(C(F)(F)F)c2)n1)c1ccc(C(F)(F)F)nc1 ; IC50 = 363

Data point: CCNC(=O)/C(=C/n1cnc(-c2cc(C(F)(F)F)cc(C(F)(F)F)c2)n1)c1ccc(NS(C)(=O)=O)cc1 ; IC50 = 2160

Data point: NC(=O)/C(=C/n1cnc(-c2cc(C(F)(F)F)cc(C(F)(F)F)c2)n1)c1ccc(F)nc1F ; IC50 = 667

====

- protocol-description: AUC (0 to infinity) in Sprague-Dawley rat at 1 mg/kg, iv measured upto 8 hrs by LC-MS/MS analysis
- Format: ADME, organism-based
- Parameters: dose 1 mg/kg, time < 8 hrs, route iv
- condition-notes: in vivo
assay-readout: AUC(0-inf) (ng·h/mL)
Just the number in ng·h/mL, nothing appended.

Data point: CS(=O)(=O)Nc1ccc(/C(=C\n2cnc(-c3cc(C(F)(F)F)cc(C(F)(F)F)c3)n2)C(N)=O)cc1 ; AUC(0-inf) = 1790

====

- protocol-description: Half life in Sprague-Dawley rat at 10 mg/kg, IG measured upto 8 hrs by LC-MS/MS analysis
- Type: ADME, organism-based
- condition-notes: in vivo, po
assay-readout: half-life (h)
Just the number in h, nothing appended.

Data point: CS(=O)(=O)Nc1ccc(/C(=C\n2cnc(-c3cc(C(F)(F)F)cc(C(F)(F)F)c3)n2)C(N)=O)cc1 ; half-life = 2.12

====

- protocol-description: Cmax in Sprague-Dawley rat at 10 mg/kg, IG measured upto 8 hrs by LC-MS/MS analysis
- Assay type: ADME, organism-based
- Parameters: dose 10 mg/kg, time < 8 hrs, route ig
- condition-notes: in vivo, po
assay-readout: Cmax (ng/mL)
Just the number in ng/mL, nothing appended.

Data point: CS(=O)(=O)Nc1ccc(/C(=C\n2cnc(-c3cc(C(F)(F)F)cc(C(F)(F)F)c3)n2)C(N)=O)cc1 ; Cmax = 1390

====

- protocol-description: Bioavailability in Sprague-Dawley rat at 10 mg/kg, IG measured upto 8 hrs by LC-MS/MS analysis
- Format: ADME, organism-based
- condition-notes: in vivo, po
assay-readout: bioavailability (%)
Just the number in %, nothing appended.

Data point: CS(=O)(=O)Nc1ccc(/C(=C\n2cnc(-c3cc(C(F)(F)F)cc(C(F)(F)F)c3)n2)C(N)=O)cc1 ; bioavailability = 34.6

====

Form field: IC50 (one value per entry).
- System: MM1.S
- protocol-description: Antiproliferative activity against human MM1.S cells assessed as inhibition of cell growth incubated for 4 hrs by CCK-8 assay
- Type: functional, cell-based
Just the number in nM, nothing appended.

Data point: CCOC(=O)/C(=C/n1cnc(-c2cc(C(F)(F)F)cc(C(F)(F)F)c2)n1)c1ccc(NS(C)(=O)=O)cc1 ; IC50 = 146

Data point: NC(=O)/C(=C/n1cc(F)c(-c2cc(C(F)(F)F)cc(C(F)(F)F)c2)n1)c1cncnc1 ; IC50 = 713

Data point: CN(c1ccc(/C(=C\n2cnc(-c3cc(C(F)(F)F)cc(C(F)(F)F)c3)n2)C(N)=O)cc1)S(C)(=O)=O ; IC50 = 446

Data point: NC(=O)/C(=C/n1cnc(-c2cc(C(F)(F)F)cc(C(F)(F)F)c2)n1)c1ccc(NS(=O)(=O)c2ccccc2)cc1 ; IC50 = 337
